Provide the recorded zone of inhibition at 100 µg/mL for the entries that follow.
- System: Escherichia coli
- assay.overview: Antibacterial activity against Escherichia coli at 100 ug/ml after 24 hrs by disc diffusion method
- Assay type: functional
- measurement.setup: read-out: IZ
Numeric only. Scale: mm

Give Escherichia coli zone of inhibition at 100 µg/mL for Cn1ncn(-c2nc(-c3ccsc3)cs2)c1=O
23

Give Escherichia coli zone of inhibition at 100 µg/mL for CCn1ncn(-c2nc(-c3ccsc3)cs2)c1=O
23

Give Escherichia coli zone of inhibition at 100 µg/mL for CC(C)Cn1ncn(-c2nc3c(s2)C(C)Sc2sccc2-3)c1=O (configuration not stated)
12

Give Escherichia coli zone of inhibition at 100 µg/mL for O=c1[nH]ncn1-c1nc(-c2ccsc2)cs1
24

Give Escherichia coli zone of inhibition at 100 µg/mL for COCCCn1ncn(-c2nc(-c3ccsc3)cs2)c1=O
24

Give Escherichia coli zone of inhibition at 100 µg/mL for N#CCn1ncn(-c2nc(-c3ccsc3)cs2)c1=O
26

Give Escherichia coli zone of inhibition at 100 µg/mL for CC1Sc2sccc2-c2nc(-n3cnn(C(C)C)c3=O)sc21 (configuration not stated)
15

Give Escherichia coli zone of inhibition at 100 µg/mL for CC1Sc2sccc2-c2nc(-n3cn[nH]c3=O)sc21 (configuration not stated)
15

Give Escherichia coli zone of inhibition at 100 µg/mL for CC(C)n1ncn(-c2nc(-c3ccsc3)cs2)c1=O
22

Give Escherichia coli zone of inhibition at 100 µg/mL for CC1Sc2sccc2-c2nc(-n3cnn(CC#N)c3=O)sc21 (configuration not stated)
11

Give Escherichia coli zone of inhibition at 100 µg/mL for CC1Sc2sccc2-c2nc(-n3cnn(C)c3=O)sc21 (configuration not stated)
18

Give Escherichia coli zone of inhibition at 100 µg/mL for CCn1ncn(-c2nc3c(s2)C(C)Sc2sccc2-3)c1=O (configuration not stated)
22

====

- Test system: Escherichia coli
- assay.overview: Antibacterial activity against Escherichia coli at 100 ug/ml after 24 hrs by disc diffusion method
- Assay type: functional
- measurement.setup: read-out: IZ
assay.readout: zone of inhibition at 100 µg/mL (mm)
Numeric only. Scale: mm

Please report the recorded zone of inhibition at 100 µg/mL for COCCCn1ncn(-c2nc3c(s2)C(C)Sc2sccc2-3)c1=O (stereo not drawn) .
22

Please report the recorded zone of inhibition at 100 µg/mL for CC(C)Cn1ncn(-c2nc(-c3ccsc3)cs2)c1=O .
17

Please report the recorded zone of inhibition at 100 µg/mL for O=C(N[C@H](CO)[C@H](O)c1ccc([N+](=O)[O-])cc1)C(Cl)Cl [CHLORAMPHENICOL] .
40

====

- Tested on: Aspergillus niger
- assay.overview: Antifungal activity against Aspergillus niger at 200 ug/ml after 48 hrs by disc diffusion method
- Format: functional
- measurement.setup: read-out: IZ
Provide the recorded zone of inhibition at 200 µg/mL for the entries that follow.
Numeric only. Scale: mm

Please report the recorded zone of inhibition at 200 µg/mL for CC(C)Cn1ncn(-c2nc3c(s2)C(C)Sc2sccc2-3)c1=O (stereo not given) .
18

Please report the recorded zone of inhibition at 200 µg/mL for Cn1ncn(-c2nc(-c3ccsc3)cs2)c1=O .
42

Please report the recorded zone of inhibition at 200 µg/mL for CC(C)Cn1ncn(-c2nc(-c3ccsc3)cs2)c1=O .
27

Please report the recorded zone of inhibition at 200 µg/mL for CC1Sc2sccc2-c2nc(-n3cnn(CC#N)c3=O)sc21 (stereo not given) .
19

Please report the recorded zone of inhibition at 200 µg/mL for O=c1[nH]ncn1-c1nc(-c2ccsc2)cs1 .
39

Please report the recorded zone of inhibition at 200 µg/mL for CC(=O)N1CCN(c2ccc(OCC3COC(Cn4ccnc4)(c4ccc(Cl)cc4Cl)O3)cc2)CC1 (stereo not given) .
44

Please report the recorded zone of inhibition at 200 µg/mL for CC1Sc2sccc2-c2nc(-n3cnn(C(C)C)c3=O)sc21 (stereo not given) .
22

Please report the recorded zone of inhibition at 200 µg/mL for CCn1ncn(-c2nc3c(s2)C(C)Sc2sccc2-3)c1=O (stereo not given) .
26

Please report the recorded zone of inhibition at 200 µg/mL for COCCCn1ncn(-c2nc(-c3ccsc3)cs2)c1=O .
28

Please report the recorded zone of inhibition at 200 µg/mL for CCn1ncn(-c2nc(-c3ccsc3)cs2)c1=O .
24

Please report the recorded zone of inhibition at 200 µg/mL for CC(C)n1ncn(-c2nc(-c3ccsc3)cs2)c1=O .
33

Please report the recorded zone of inhibition at 200 µg/mL for CC1Sc2sccc2-c2nc(-n3cnn(C)c3=O)sc21 (stereo not given) .
23

Please report the recorded zone of inhibition at 200 µg/mL for COCCCn1ncn(-c2nc3c(s2)C(C)Sc2sccc2-3)c1=O (stereo not given) .
41

Please report the recorded zone of inhibition at 200 µg/mL for CC1Sc2sccc2-c2nc(-n3cn[nH]c3=O)sc21 (stereo not given) .
29

Please report the recorded zone of inhibition at 200 µg/mL for N#CCn1ncn(-c2nc(-c3ccsc3)cs2)c1=O .
29
